Molecular target: Ba/F3 cells EML4-ALK L1196M/G1202R (variant 1) (Homo sapiens, UniProt Q9UM73, G1202R/L1196M)
Construct: echinoderm microtubule-associated protein-like 4 (EML4) gene and the ALK tyrosine kinase domain; the other entry of the earlier key: EML4 (Q9HC35, Echinoderm microtubule-associated protein-like 4)
Sequence (Q9UM73 with tags, fused parts or gaps L1196M/G1202R): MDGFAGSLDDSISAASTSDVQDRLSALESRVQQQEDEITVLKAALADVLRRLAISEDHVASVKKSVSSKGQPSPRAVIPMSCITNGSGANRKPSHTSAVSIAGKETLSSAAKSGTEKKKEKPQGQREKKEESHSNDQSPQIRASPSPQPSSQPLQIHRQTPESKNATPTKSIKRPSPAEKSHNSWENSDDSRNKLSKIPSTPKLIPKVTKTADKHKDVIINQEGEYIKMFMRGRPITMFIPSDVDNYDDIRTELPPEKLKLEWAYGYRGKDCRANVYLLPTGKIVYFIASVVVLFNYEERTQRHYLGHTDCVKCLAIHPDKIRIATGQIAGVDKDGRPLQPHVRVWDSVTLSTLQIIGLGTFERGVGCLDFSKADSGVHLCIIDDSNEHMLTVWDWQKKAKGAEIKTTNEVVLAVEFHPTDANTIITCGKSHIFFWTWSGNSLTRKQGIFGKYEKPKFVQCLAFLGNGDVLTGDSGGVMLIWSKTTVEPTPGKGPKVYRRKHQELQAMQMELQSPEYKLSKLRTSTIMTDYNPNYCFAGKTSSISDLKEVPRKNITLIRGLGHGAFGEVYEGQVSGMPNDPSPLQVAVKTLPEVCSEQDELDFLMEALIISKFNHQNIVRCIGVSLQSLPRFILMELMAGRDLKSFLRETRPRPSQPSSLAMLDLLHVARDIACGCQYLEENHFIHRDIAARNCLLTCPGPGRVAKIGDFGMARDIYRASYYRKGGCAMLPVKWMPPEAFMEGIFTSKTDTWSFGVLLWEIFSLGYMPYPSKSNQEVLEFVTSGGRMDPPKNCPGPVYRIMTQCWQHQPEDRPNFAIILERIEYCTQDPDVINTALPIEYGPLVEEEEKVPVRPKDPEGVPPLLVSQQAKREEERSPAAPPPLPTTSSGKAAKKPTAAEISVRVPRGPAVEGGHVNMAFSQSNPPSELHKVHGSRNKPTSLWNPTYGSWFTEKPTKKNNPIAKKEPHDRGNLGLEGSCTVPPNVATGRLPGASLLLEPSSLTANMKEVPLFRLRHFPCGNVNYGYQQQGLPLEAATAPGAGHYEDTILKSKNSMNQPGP
Test: Ba/F3 cell proliferation assay, EML4-ALK L1196M/G1202R (variant 1)
Details: 72 hours, CellTiter-Glo
pIC50: −log10 of the molar value.
reported.property: pIC50

chem.smiles	recorded.value
CCc1snc2c1-c1cnc(N)c(c1)O[C@H](C)c1cc(F)ccc1-c1nn(C)nc1C2	< 6.30
C[C@H]1Oc2cc(cnc2N)-c2c(c(Cl)nn2CC2CC2)Cc2nn(C)cc2-c2ccc(F)cc21	6.30 to 7.30
CCc1noc2c1-c1cnc(N)c(c1)O[C@H](C)c1cc(F)ccc1-c1nn(C)nc1C2	6.30 to 7.30
C[C@H]1Oc2cc(cnc2N)-c2c(C#N)cnn2Cc2nccnc2-c2ccc(F)cc21	< 6.30
CCc1onc2c1-c1cnc(N)c(c1)O[C@H](C)c1cc(F)ccc1-c1nn(C)nc1C2	6.30 to 7.30

Switching to the query record.
QUERY: Request the reported pIC50 associated with Cc1nn(CC2CC2)c2c1Cc1nccnc1-c1ccc(F)cc1[C@@H](C)Oc1cc-2cnc1N
RESULT: 7.30 to 10.00

---

Recorded pIC50 by entry
Target: Ba/F3 cells EML4-ALK wt (variant 1) (Homo sapiens)
Construct: echinoderm microtubule-associated protein-like 4 (EML4) gene and the ALK tyrosine kinase domain; the other entry of the earlier key: EML4 (Q9HC35, Echinoderm microtubule-associated protein-like 4)
Sequence (Q9UM73 with tags, fused parts or gaps): as the sequence (Q9UM73 with tags, fused parts or gaps L1196M/G1202R) above, with M635L, R641G counted along it
Experiment: Ba/F3 cell proliferation assay, EML4-ALK wt (variant 1)
Settings: 72 hours, CellTiter-Glo
pIC50: −log10 of the molar value.

Worked set:
compound	pIC50
C[C@H]1Oc2cc(cnc2N)-c2c(cnn2C2CCC2)Cn2nncc2-c2ccc(F)cc21 [Example 7]	7.30 to 10.00
CCn1nc(Cl)c2c1-c1cnc(N)c(c1)O[C@H](C)c1cc(F)ccc1-c1oc(C)nc1C2 [Example 84]	6.30 to 7.30
CCn1ncc2c1-c1cnc(N)c(c1)O[C@H](C)c1cc(F)ccc1-c1cc(Br)nn1C2 [Example 94]	7.30 to 10.00

QUERY: Request the reported pIC50 associated with CCn1ncc2c1-c1cnc(N)c(c1)O[C@H](C)c1cc(F)ccc1-c1cc(C)nn1C2 [Example 4]
RESULT: 7.30 to 10.00

QUERY: Request the reported pIC50 associated with CCn1ncc2c1-c1cnc(N)c(c1)O[C@H](C)c1cc(F)ccc1-c1cc(F)nn1C2 [Example 15]
RESULT: 7.30 to 10.00

QUERY: Request the reported pIC50 associated with CCn1ncc2c1-c1cnc(N)c(c1)O[C@H](C)c1cc(F)ccc1-c1nn(C)nc1C2 [Example 5]
RESULT: 7.30 to 10.00

---

Target: TRKA-wt (Homo sapiens, UniProt P04629)
Recorded Ki by entry

compound	reported.property	recorded.value
CCc1noc2c1-c1cnc(N)c(c1)O[C@H](C)c1cc(F)ccc1-c1cn(C)nc1C2 [Example 23]	Ki	50 to 500 nM
CCn1ncc2c1-c1cnc(N)c(c1)O[C@H](C)c1cc(F)ccc1-c1nn(C)nc1C2 [Example 5]	Ki	50 to 500 nM

QUERY: Request the reported Ki associated with C[C@H]1Oc2cc(cnc2N)-c2c(C#N)ncn2Cc2ncncc2-c2ccc(F)cc21 [Example 18]
RESULT: > 500 nM

---

Target: Ba/F3 cells TPM3-TRKA (Homo sapiens, UniProt P04629)
Construct: the other entry of the earlier key: TPM3 (P06753, Tropomyosin alpha-3 chain)
Sequence (P04629 510-796 limits assumed): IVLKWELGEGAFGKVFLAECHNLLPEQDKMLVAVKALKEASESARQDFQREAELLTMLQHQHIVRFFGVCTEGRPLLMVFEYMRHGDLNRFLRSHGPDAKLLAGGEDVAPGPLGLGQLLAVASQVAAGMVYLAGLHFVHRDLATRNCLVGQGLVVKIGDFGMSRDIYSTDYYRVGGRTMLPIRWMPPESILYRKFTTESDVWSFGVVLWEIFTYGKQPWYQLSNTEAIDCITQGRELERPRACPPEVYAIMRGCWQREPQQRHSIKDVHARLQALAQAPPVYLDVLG
Assay: Ba/F3 cell proliferation assay, TPM3-TRKA
Settings: 72 hours, CellTiter-Glo, read-out: TPM3-NTRK1-wt IC50
Recorded IC50 by entry

Worked set:
molecule	study.target	IC50
CCn1nc(Cl)c2c1-c1cnc(N)c(c1)O[C@H](C)c1cc(F)ccc1-c1ncnn1C2	Ba/F3 cells TPM3-TRKA (Homo sapiens, UniProt P04629)	> 0.5 µM
CCc1noc2c1-c1cnc(N)c(c1)O[C@H](C)c1cc(F)ccc1-c1nn(C)nc1C2	Ba/F3 cells TPM3-TRKA (Homo sapiens, UniProt P04629)	0.05 to 0.5 µM
CCn1nc(Cl)c2c1-c1cnc(N)c(c1)O[C@H](C)c1cc(F)ccc1-c1nn(C)nc1C2	Ba/F3 cells TPM3-TRKA (Homo sapiens, UniProt P04629)	0.05 to 0.5 µM
C[C@H]1Oc2cc(cnc2N)-c2c(c(Cl)nn2CC2CC2)Cc2nn(C)nc2-c2ccc(F)cc21	Ba/F3 cells TPM3-TRKA (Homo sapiens, UniProt P04629)	> 0.5 µM
CCn1ncc2c1-c1cnc(N)c(c1)O[C@H](C)c1cc(F)ccc1-c1nc(C)nn1C2	Ba/F3 cells TPM3-TRKA (Homo sapiens, UniProt P04629)	0.05 to 0.5 µM
Cc1nc2c(o1)-c1ccc(F)cc1[C@@H](C)Oc1cc(cnc1N)-c1c(c(C)nn1CC1CC1)C2	Ba/F3 cells TPM3-TRKA (Homo sapiens, UniProt P04629)	> 0.5 µM
CCn1ncc2c1-c1cnc(N)c(c1)O[C@H](C)c1cc(F)ccc1-n1ncnc1C2	Ba/F3 cells TPM3-TRKA (Homo sapiens, UniProt P04629)	> 0.5 µM
C[C@H]1Oc2cc(cnc2N)-c2c(nnn2CC2CC2)Cc2nn(C)nc2-c2ccc(F)cc21	Ba/F3 cells TPM3-TRKA (Homo sapiens, UniProt P04629)	> 0.5 µM

QUERY: Request the reported IC50 associated with CCn1nc(C)c2c1-c1cnc(N)c(c1)O[C@H](C)c1cc(F)ccc1-c1ncnn1C2
RESULT: 0.05 to 0.5 µM

QUERY: Request the reported IC50 associated with CCn1ncc2c1-c1cnc(N)c(c1)O[C@H](C)c1cc(F)ccc1-c1cc(Br)nn1C2
RESULT: 0.05 to 0.5 µM

QUERY: Request the reported IC50 associated with C[C@H]1Oc2cc(cnc2N)-c2c(cnn2C2CCC2)Cn2nncc2-c2ccc(F)cc21
RESULT: > 0.5 µM

---

Molecular target: Ba/F3 cells EML4-ALK wt (variant 1) (Homo sapiens)
Construct: echinoderm microtubule-associated protein-like 4 (EML4) gene and the ALK tyrosine kinase domain; the other entry of the earlier key: EML4 (Q9HC35, Echinoderm microtubule-associated protein-like 4)
Assay: Ba/F3 cell proliferation assay, EML4-ALK wt (variant 1)
Conditions: 72 hours, CellTiter-Glo
Recorded IC50 by entry

chem.smiles	IC50
CCn1ncc2c1-c1cnc(N)c(c1)O[C@H](C)c1cc(F)ccc1-c1cc(Cl)nn1C2	0.1 to 50 nM
CCc1noc2c1-c1cnc(N)c(c1)O[C@H](C)c1cc(F)ccc1-c1ncnn1C2	0.1 to 50 nM

QUERY: Request the reported IC50 associated with C[C@H]1Oc2cc(cnc2N)-c2c(C#N)noc2Cc2nn(C)nc2-c2ccc(F)cc21
RESULT: 50 to 500 nM

QUERY: Request the reported IC50 associated with C[C@H]1Oc2cc(cnc2N)-c2c(C#N)ncn2Cc2ncncc2-c2ccc(F)cc21
RESULT: 50 to 500 nM

QUERY: Request the reported IC50 associated with C[C@H]1Oc2cc(cnc2N)-c2c(C3CCC3)noc2Cc2nn(C)nc2-c2ccc(F)cc21
RESULT: 0.1 to 50 nM

---

Molecular target: Ba/F3 cells EML4-ALK L1196M/G1202R (variant 1) (Homo sapiens, UniProt Q9UM73, G1202R/L1196M)
Construct: echinoderm microtubule-associated protein-like 4 (EML4) gene and the ALK tyrosine kinase domain; the other entry of the earlier key: EML4 (Q9HC35, Echinoderm microtubule-associated protein-like 4)
Assay: Ba/F3 cell proliferation assay, EML4-ALK L1196M/G1202R (variant 1)
Settings: 72 hours, CellTiter-Glo
Recorded IC50 by entry

Worked set:
molecule	recorded.value
C[C@H]1Oc2cc(cnc2N)-c2c(C#N)noc2Cn2nccc2-c2ccc(F)cc21 [Example 20]	> 500 nM
C[C@H]1Oc2cc(cnc2N)-c2c(nnn2CC2CC2)Cc2nn(C)nc2-c2ccc(F)cc21 [Example 51]	0.1 to 50 nM
C[C@H]1Oc2cc(cnc2N)-c2c(cnn2C2CCC2)Cn2nncc2-c2ccc(F)cc21 [Example 7]	50 to 500 nM
CCn1ncc2c1-c1cnc(N)c(c1)OCc1cc(F)ccc1-c1ccnn1C2 [Example 17]	> 500 nM
CCn1nc(Cl)c2c1-c1cnc(N)c(c1)O[C@H](C)c1cc(F)ccc1-c1oc(C)nc1C2 [Example 84]	50 to 500 nM
CCn1ncc2c1-c1cnc(N)c(c1)O[C@H](C)c1cc(F)ccc1-c1cc(Cl)nn1C2 [Example 16]	0.1 to 50 nM

QUERY: Request the reported IC50 associated with CCn1ccc2c1-c1cnc(N)c(c1)O[C@H](C)c1cc(F)ccc1-c1nn(C)nc1C2 [Example 102]
RESULT: > 500 nM

QUERY: Request the reported IC50 associated with CCn1ncc2c1-c1cnc(N)c(c1)O[C@H](C)c1cc(F)ccc1-c1oc(C)nc1C2 [Example 66]
RESULT: 0.1 to 50 nM

QUERY: Request the reported IC50 associated with CCn1ncc2c1-c1cnc(N)c(c1)O[C@H](C)c1cc(F)ccc1-c1c(Cl)cnn1C2 [Example 27]
RESULT: 50 to 500 nM

QUERY: Request the reported IC50 associated with C[C@H]1Oc2cc(cnc2N)-c2c(cnn2C2CC2)Cc2nn(C)nc2-c2ccc(F)cc21 [Example 14]
RESULT: 50 to 500 nM

QUERY: Request the reported IC50 associated with C[C@H]1Oc2cc(cnc2N)-c2c(C#N)ncn2Cc2nccnc2-c2ccc(F)cc21 [Example 46]
RESULT: 50 to 500 nM

QUERY: Request the reported IC50 associated with C[C@H]1Oc2cc(cnc2N)-c2c(C#N)noc2Cc2nn(C)nc2-c2ccc(F)cc21 [Example 25]
RESULT: > 500 nM

QUERY: Request the reported IC50 associated with Cc1nn(CC2CC2)c2c1Cc1nn(C)nc1-c1c(F)cc(F)cc1[C@@H](C)Oc1cc-2cnc1N [Example 82]
RESULT: 50 to 500 nM

QUERY: Request the reported IC50 associated with CCn1nc(OC)c2c1-c1cnc(N)c(c1)O[C@H](C)c1cc(F)ccc1-c1cc(C)nn1C2 [Example 32]
RESULT: 50 to 500 nM

QUERY: Request the reported IC50 associated with C[C@H]1Oc2cc(cnc2N)-c2c(CC3CC3)nn(C)c2Cn2ncnc2-c2ccc(F)cc21 [Example 99]
RESULT: 50 to 500 nM

QUERY: Request the reported IC50 associated with CCn1ncc2c1-c1cnc(N)c(c1)O[C@H](C)c1cc(F)ccc1-n1ncnc1C2 [Example 38]
RESULT: 50 to 500 nM
